molecular target: Histone-lysine N-methyltransferase SETD7 (Homo sapiens, UniProt Q8WTS6); assay: Inhibition of GST-fused human recombinant SET7 after 90 mins by SDS-PAGE based scintillation counting
Measurement Type: IC50 (µM)
# output: bare number, implied unit µM

**Query** Recorded IC50 of "Nc1ncnc2c1ncn2[C@@H]1O[C@H](C[C@@H](N)CC[C@H](N)C(=O)O)[C@@H](O)[C@H]1O" , please.
**Result** 2.5

###

Documented inhibition across a set of compounds
Biological target: Histone-lysine N-methyltransferase SETD7 (Homo sapiens) (UniProt Q8WTS6)
Sequence (whole entry): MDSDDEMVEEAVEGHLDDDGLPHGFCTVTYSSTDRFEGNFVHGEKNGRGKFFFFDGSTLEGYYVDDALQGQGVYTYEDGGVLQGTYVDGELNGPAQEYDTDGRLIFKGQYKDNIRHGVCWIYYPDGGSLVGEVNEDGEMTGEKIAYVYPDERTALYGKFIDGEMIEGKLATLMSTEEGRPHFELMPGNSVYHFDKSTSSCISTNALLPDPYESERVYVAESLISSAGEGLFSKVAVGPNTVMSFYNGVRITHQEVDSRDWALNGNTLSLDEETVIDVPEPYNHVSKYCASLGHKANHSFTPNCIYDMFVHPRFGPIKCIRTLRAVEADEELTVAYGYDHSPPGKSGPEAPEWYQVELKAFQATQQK
Assay: Inhibition of GST-fused human recombinant SET7 at 100 uM after 90 mins by SDS-PAGE based scintillation counting

Solved entries:
N=C(N)NCCCCCN(CC[C@H](N)C(=O)O)C[C@H]1O[C@@H](n2cnc3c(N)ncnc32)[C@H](O)[C@@H]1O	55%
C#CCN(CC[C@H](NC(=O)OC(C)(C)C)C(=O)OC(C)(C)C)C[C@H]1O[C@@H](n2cnc3c(N)ncnc32)[C@@H]2OC(C)(C)O[C@@H]21	63%
N=C(N)NCCn1cc(CN(CC[C@H](N)C(=O)O)C[C@H]2O[C@@H](n3cnc4c(N)ncnc43)[C@H](O)[C@@H]2O)nn1	> 50%
C#CCN(CC[C@H](N)C(=O)O)C[C@H]1O[C@@H](n2cnc3c(N)ncnc32)[C@H](O)[C@@H]1O	75%
N=C(N)NCCCCN(CC[C@H](N)C(=O)O)C[C@H]1O[C@@H](n2cnc3c(N)ncnc32)[C@H](O)[C@@H]1O	49%

Moving on to another compound below.
**Query** Recorded inhibition of "N=C(N)NCCCN(CC[C@H](N)C(=O)O)C[C@H]1O[C@@H](n2cnc3c(N)ncnc32)[C@H](O)[C@@H]1O" , please.
**Result** 56.5%
